Target: NAMPT (human, recombinant, C-terminally His-tagged) (Homo sapiens)
Experiment: Time-Resolved Fluorescence Resonance Energy Transfer (TR-FRET) Binding Assay of NAMPT
Conditions: without substrates; 6.8 nM NAMPT, 200 nM probe, 3 hours equilibration
pIC50: −log10 of the molar value.
assay.endpoint: pIC50

Example results:
1) COCCOCC(=O)Nc1ccc(NC(=O)Nc2ccc3nccn3c2)cc1 | 6.16
2) O=C(NCc1ccn2ccnc2c1)c1ccc(-c2cnn(CC3COCCO3)c2)s1 (stereo not drawn) | 7.38
3) O=C(NCc1ccn2ccnc2c1)Nc1ccc(OC2CN(C(=O)CC3CCOCC3)C2)cc1 | 6.79
4) O=C(NCc1ccn2ccnc2c1)Nc1ccc(C2CCN(C(=O)CCC(F)(F)F)CC2)cc1 | 6.77
5) CC(C)C(=O)N1CCC(c2ccc(C(=O)NCc3ccn4ccnc4c3)o2)CC1 | 5.51

[1] CC(C)C(=O)N1CCC(c2ccc(C(=O)NCc3ccn4ccnc4c3)s2)C1 (stereo not drawn)
[2] O=C(NCc1ccn2ccnc2c1)c1ccc(C2CCN(C(=O)c3cccs3)CC2)cc1
Task item: Hello, I am sorting some records. Could you say if 1 or 2 has the smaller pIC50 value? When you have decided, please share the label of that item.
Reply: 1
(1: 6.76, 2: 7.27)

[a] CC(C)OCCNC(=O)N(CC1CCOC1)c1ncc(C(=O)NCc2ccc3nccn3c2)s1 (stereo not drawn)
[b] O=C(NCc1ccn2ccnc2c1)Nc1ccc(C2CCN(C(=O)c3cccc(F)c3)CC2)cc1
Task item: Between a and b , whose measured pIC50 reads higher? When you have decided, please share the label of that item.
Reply: b
(b: 7.44, a: 5.38)

[a] O=C(NCc1ccn2ccnc2c1)c1ccc(C2CCN(C(=O)Cc3ccccc3)C2)cc1 (stereo not drawn)
[b] Cn1cc(CC(=O)N(CC2CCCO2)c2ncc(C(=O)NCc3ccc4nccn4c3)s2)cn1 (stereo not drawn)
[c] COc1ccc(C(=O)N2CCC(c3ccc(C(=O)NCc4ccn5ccnc5c4)cc3)C2)cc1 (stereo not drawn)
[d] O=C(NCc1ccn2ccnc2c1)c1ccc(-c2cnn(C[C@H]3CCCO3)c2)s1
[e] O=C(NCc1ccn2ccnc2c1)c1ccc(C2CCN(C(=O)C3COCCO3)C2)cc1 (stereo not drawn)
Task item: Order by pIC50, ascending. Provide your answer as the labels ordered per the instruction.
Reply: e, b, c, a, d
(e: 5.78, b: 5.98, c: 6.25, a: 6.65, d: 7.90)

---

Quick note: these are IC50 numbers for system: NAMPT (Homo sapiens)
assay.endpoint: IC50 (pM)

1. O=C(NCc1ccc2nccn2c1)c1ccc(OC2CCN(C(=O)CC(F)(F)F)CC2)cc1 [Example 170] | 2250

[a] O=C(Nc1ccc(C(=O)NCCN2CCCC2)cc1)Nc1ccc2nccn2c1 [Example 11]
[b] O=C(NCc1ccn2ccnc2c1)c1ccc(C2CCN(C(=O)[C@@H]3CCOC3)CC2)cc1 [Example 309]
Task item: Between a and b , whose measured IC50 reads higher? When you have decided, please share the label of that item.
Reply: a

---

Quick note: these are pIC50 numbers for system: NAMPT (Homo sapiens, UniProt P43490)
Sequence (P43490 whole entry): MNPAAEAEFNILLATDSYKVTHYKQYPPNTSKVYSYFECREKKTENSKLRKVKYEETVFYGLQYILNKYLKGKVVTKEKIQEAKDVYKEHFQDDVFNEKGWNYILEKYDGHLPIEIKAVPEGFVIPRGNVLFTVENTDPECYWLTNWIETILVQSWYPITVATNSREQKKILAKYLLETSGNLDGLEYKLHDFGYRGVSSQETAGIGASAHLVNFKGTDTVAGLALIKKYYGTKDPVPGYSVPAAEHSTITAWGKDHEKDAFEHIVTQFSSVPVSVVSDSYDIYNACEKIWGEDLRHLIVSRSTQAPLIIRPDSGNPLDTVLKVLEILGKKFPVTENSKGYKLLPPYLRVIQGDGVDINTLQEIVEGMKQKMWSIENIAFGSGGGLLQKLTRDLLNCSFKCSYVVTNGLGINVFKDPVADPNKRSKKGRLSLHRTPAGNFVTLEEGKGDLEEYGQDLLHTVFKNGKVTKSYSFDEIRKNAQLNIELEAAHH
pIC50: −log10 of the molar value.
assay.endpoint: pIC50

Example results:
1) O=C(NCc1ccn2ccnc2c1)Nc1ccc(C2CCN(C(=O)c3ccc(F)cc3F)CC2)cc1 | 9.00
2) CC1(C(=O)N2CCC(c3ccc(C(=O)NCc4cn5ccnc5cn4)cc3)CC2)CC1 | 8.79
3) CC(C)(O)C(=O)N1CC(c2ccc(NC(=O)NCc3ccn4ccnc4c3)cc2)C1 | 9.31

[P] O=C(NCc1ccn2ccnc2c1)c1ccc(C2CN(C(=O)c3ccc(F)cc3)C2)cc1
[Q] O=C(NCc1ccn2ccnc2c1)c1ccc(-c2ccc(N3CCOCC3)nc2)s1
Task item: Hello, I am sorting some records. Could you say if P or Q has the smaller pIC50 value? When you have decided, please share the label of that item.
Reply: P

---

Molecular target: NAMPT (human, recombinant, C-terminally His-tagged) (Homo sapiens)
Assay: Time-Resolved Fluorescence Resonance Energy Transfer (TR-FRET) Binding Assay of NAMPT
Settings: without substrates; 6.8 nM NAMPT, 200 nM probe, 3 hours equilibration
pIC50: −log10 of the molar value.
assay.endpoint: pIC50

Example results:
1. O=C(NCc1ccn2ccnc2c1)c1ccc(C2(NC(=O)C3CCOCC3)CCC2)s1 [Example 473] | < 5.00
2. O=C(NCc1ccc2nccn2c1)c1ccc(C2=CCN(C(=O)C3COCCO3)CC2)cc1 (stereo not drawn) [Example 102] | 6.41
3. CC(C)CS(=O)(=O)N1CC=C(c2ccc(C(=O)NCc3ccn4ccnc4c3)o2)CC1 [Example 753] | 6.39
4. O=C(NCc1ccn2ccnc2c1)c1cnc(N2C(=O)CC[C@H]2CO)s1 [Example 244] | < 5.00
5. O=C(NCc1ccc2nccn2c1)c1ccc(C(=O)NC[C@@H]2CCOC2)cc1 [Example 359] | < 5.00

Now for a further compound.
Task item: Any idea what pIC50 was measured for CC(C)[C@H]1COC(=O)N1c1ncc(C(=O)NCc2ccn3ccnc3c2)s1 [Example 185] ?
Reply: < 5.00

---

pIC50: −log10 of the molar value.
Quick note: these are pIC50 numbers for system: NAMPT (Homo sapiens, UniProt P43490)
assay.endpoint: pIC50

1. O=C(NCc1ccc2nccn2c1)c1ccc(C2=CCN(C(=O)CN3CCOCC3)CC2)cc1 [Example 92] | 9.06
2. O=C(NCc1ccn2ccnc2c1)c1ccc(C2CCN(C(=O)c3ccsc3)C2)cc1 (centres unmarked) [Example 617] | 9.19
3. CCC(C)(C)C(=O)N1CCC(c2ccc(C(=O)NCc3ccn4ccnc4c3)s2)C1 (centres unmarked) [Example 791] | 8.94
4. CC(C)C[C@H](NC(=O)C1CC1)c1ccc(C(=O)NCc2ccn3ccnc3c2)s1 [Example 687] | 8.94
5. Cc1ccsc1C(=O)N1CC(c2ccc(C(=O)NCc3ccn4ccnc4c3)cc2)C1 [Example 670] | 9.26
6. CC(C)(C)CC(=O)N1CC(c2ccc(C(=O)NCc3ccn4ccnc4c3)cc2)C1 [Example 652] | 8.94
7. O=C(NCc1ccn2ccnc2c1)Nc1ccc(C2CCN(C(=O)c3ccc(F)cc3)CC2)cc1 [Example 721] | 8.92
8. CC[C@H](C)C(=O)N1CC[C@H](Oc2ccc(C(=O)NCc3ccn4ccnc4c3)cc2)C1 [Example 321] | 9.10

---

Molecular target: NAMPT (human, recombinant, C-terminally His-tagged) (Homo sapiens)
Experiment: Time-Resolved Fluorescence Resonance Energy Transfer (TR-FRET) Binding Assay of NAMPT
Details: without substrates; 6.8 nM NAMPT, 200 nM probe, 3 hours equilibration
pIC50: −log10 of the molar value.
assay.endpoint: pIC50

1) O=C(NCc1ccn2ccnc2c1)c1ccc(C2CN(C(=O)c3cccc(F)c3)C2)cc1 [Example 640] | 6.77

[A] O=C(NCc1ccn2ccnc2c1)Nc1ccc(O[C@@H]2CCN(C(=O)[C@@H]3CCCO3)C2)cc1 [Example 336]
[B] Cc1cccc(C(=O)N2CCC(c3ccc(C(=O)NCc4ccn5ccnc5c4)cc3)C2)c1 (stereo not shown) [Example 616]
[C] O=C(NCc1ccn2ccnc2c1)c1ccc(OC2CN(C(=O)CC3CC3)C2)cc1 [Example 560]
Task item: Order by pIC50, ascending. Provide your answer as the labels ordered per the instruction.
Reply: C, A, B

---

Quick note: these are IC50 numbers for system: UniProt P43490
assay.endpoint: IC50 (nM)

[a] N#Cc1ccc(C(=O)N2CCC(c3ccc(C(=O)NCc4ccn5ccnc5c4)s3)C2)cc1 (stereo not drawn)
[b] O=C(NCc1ccc2nccn2c1)c1ccc(OC2CCN(C(=O)CC3CCCO3)CC2)cc1 (stereo not drawn)
Task item: Hello, I am sorting some records. Could you say if a or b has the smaller IC50 value? When you have decided, please share the label of that item.
Reply: a
(a: 0.581 nM, b: 1.24 nM)

---

Target: NAMPT (human, recombinant, C-terminally His-tagged) (Homo sapiens, UniProt P43490)
Assay: Time-Resolved Fluorescence Resonance Energy Transfer (TR-FRET) Binding Assay of NAMPT
Conditions: without substrates; 6.8 nM NAMPT, 200 nM probe, 3 hours equilibration
pIC50: −log10 of the molar value.
assay.endpoint: pIC50

1) O=C(NCc1ccn2ccnc2c1)c1ccc(O[C@H]2CCN(C(=O)[C@H]3CCCO3)C2)cc1 | < 5.00
2) O=C(NCc1ccn2ccnc2c1)c1ccc(C(=O)NC[C@@H]2CCOC2)cc1 | < 5.00

Now for a further compound.
Task item: Any idea what pIC50 was measured for O=C(NCc1ccc2nccn2c1)c1cnc(N(C[C@@H]2CCCO2)C(=O)C2CCOC2)s1 (stereo partly drawn) ?
Reply: < 5.00
